Tested on: SF-539
protocol_notes: Cytotoxicity against human SF539 cells assessed as cell growth at 10 uM after 48 hrs by sulforhodamine B assay relative to control
Assay type: functional
condition_summary: SF-539, 48 h, read-out: Activity
assay_readout: growth at 10 µM (%)

>>> value("COc1ccc(C(=O)/C=C/c2cc(-c3cc(OC)c(OC)c(OC)c3)n[nH]2)cc1")
-92
>>> value("COc1ccc(C(=O)/C=C/c2cc(-c3ccc(OC)c(OC)c3)n[nH]2)cc1OC")
-51
>>> value("COc1cc(-c2cc(/C=C/C(=O)c3ccc4c(c3)OCO4)[nH]n2)cc(OC)c1OC")
-27
>>> value("COc1ccc(-c2cc(/C=C/C(=O)c3cc(OC)c(OC)c(OC)c3)[nH]n2)cc1OC")
-85

====

Tested on: T47D
protocol_notes: Cytotoxicity against human T47D cells assessed as cell growth at 0.01 uM after 48 hrs by sulforhodamine B assay relative to control
Type: functional
condition_summary: read-out: Activity
assay_readout: growth at 0.01 µM (%)

>>> value("COc1cc(C(=O)/C=C/c2cc(-c3ccc4c(c3)OCO4)n[nH]2)cc(OC)c1OC")
90
>>> value("COc1cc(C(=O)/C=C/c2cc(-c3cc(OC)c(OC)c(OC)c3)n[nH]2)cc(OC)c1OC")
91
>>> value("COc1ccc(C(=O)/C=C/c2cc(-c3ccc4c(c3)OCO4)n[nH]2)cc1OC")
90
>>> value("COc1cc(-c2cc(/C=C/C(=O)c3ccc(Cl)c(Cl)c3)[nH]n2)cc(OC)c1OC")
90

====

System: CCRF-CEM
protocol_notes: Cytotoxicity against human CCRF-CEM cells assessed as growth inhibition after 48 hrs by sulforhodamine B assay
Assay type: functional
assay_readout: GI50

>>> value("COc1cc2c(cc1OC)C(=O)/C(=C/c1cc(-c3ccc4c(c3)OCO4)n[nH]1)C2")
"1140 nM"
>>> value("COc1ccc(C(=O)/C=C/c2cc(-c3ccc(OC)c(OC)c3)n[nH]2)cc1OC")
"364 nM"
>>> value("COc1ccc(-c2cc(/C=C/C(=O)c3cc(OC)c(OC)c(OC)c3)[nH]n2)cc1OC")
"340 nM"
>>> value("COc1ccc(-c2cc(/C=C/C(=O)c3ccc(OC)c(OC)c3)[nH]n2)cc1")
"1340 nM"

====

Test system: SW-620
protocol_notes: Cytotoxicity against human SW620 cells assessed as cell growth at 100 uM after 48 hrs by sulforhodamine B assay relative to control
Assay type: functional
condition_summary: SW-620, 48 h, read-out: Activity
Assign class by growth at 100 µM: not lower than -40% means 1; lower than -40% means -1.

>>> class_name("COc1cc(-c2cc(/C=C/C(=O)c3ccc(F)c(F)c3)[nH]n2)cc(OC)c1OC")
1
>>> class_name("COc1ccc(-c2cc(/C=C/C(=O)c3cc(OC)c(OC)c(OC)c3)[nH]n2)cc1OC")
-1
>>> class_name("COc1ccc(-c2cc(/C=C/C(=O)c3ccc(N)cc3)[nH]n2)cc1OC")
-1

====

System: T47D
protocol_notes: Cytotoxicity against human T47D cells assessed as cell growth at 0.01 uM after 48 hrs by sulforhodamine B assay relative to control
Assay type: functional
condition_summary: read-out: Activity
Quick reference for growth at 0.01 µM among some compounds
assay_readout: growth at 0.01 µM (%)

>>> value("COc1ccc(-c2cc(/C=C/C(=O)c3ccc(N)cc3)[nH]n2)cc1OC")
85
>>> value("COc1ccc(C(=O)/C=C/c2cc(-c3cc(OC)c(OC)c(OC)c3)n[nH]2)cc1")
96
>>> value("COc1ccc(C(=O)/C=C/c2cc(-c3cc(OC)c(OC)c(OC)c3)n[nH]2)cc1OC")
93
>>> value("COc1ccc(C(=O)/C=C/c2cc(-c3ccc(OC)c(OC)c3)n[nH]2)cc1OC")
82
>>> value("COc1ccc(-c2cc(/C=C/C(=O)c3cc(OC)c(OC)c(OC)c3)[nH]n2)cc1OC")
91
